- Assay Target: Tyrosine-protein kinase ABL1 (Homo sapiens) (UniProt P00519)
- Sequence (P00519 whole entry): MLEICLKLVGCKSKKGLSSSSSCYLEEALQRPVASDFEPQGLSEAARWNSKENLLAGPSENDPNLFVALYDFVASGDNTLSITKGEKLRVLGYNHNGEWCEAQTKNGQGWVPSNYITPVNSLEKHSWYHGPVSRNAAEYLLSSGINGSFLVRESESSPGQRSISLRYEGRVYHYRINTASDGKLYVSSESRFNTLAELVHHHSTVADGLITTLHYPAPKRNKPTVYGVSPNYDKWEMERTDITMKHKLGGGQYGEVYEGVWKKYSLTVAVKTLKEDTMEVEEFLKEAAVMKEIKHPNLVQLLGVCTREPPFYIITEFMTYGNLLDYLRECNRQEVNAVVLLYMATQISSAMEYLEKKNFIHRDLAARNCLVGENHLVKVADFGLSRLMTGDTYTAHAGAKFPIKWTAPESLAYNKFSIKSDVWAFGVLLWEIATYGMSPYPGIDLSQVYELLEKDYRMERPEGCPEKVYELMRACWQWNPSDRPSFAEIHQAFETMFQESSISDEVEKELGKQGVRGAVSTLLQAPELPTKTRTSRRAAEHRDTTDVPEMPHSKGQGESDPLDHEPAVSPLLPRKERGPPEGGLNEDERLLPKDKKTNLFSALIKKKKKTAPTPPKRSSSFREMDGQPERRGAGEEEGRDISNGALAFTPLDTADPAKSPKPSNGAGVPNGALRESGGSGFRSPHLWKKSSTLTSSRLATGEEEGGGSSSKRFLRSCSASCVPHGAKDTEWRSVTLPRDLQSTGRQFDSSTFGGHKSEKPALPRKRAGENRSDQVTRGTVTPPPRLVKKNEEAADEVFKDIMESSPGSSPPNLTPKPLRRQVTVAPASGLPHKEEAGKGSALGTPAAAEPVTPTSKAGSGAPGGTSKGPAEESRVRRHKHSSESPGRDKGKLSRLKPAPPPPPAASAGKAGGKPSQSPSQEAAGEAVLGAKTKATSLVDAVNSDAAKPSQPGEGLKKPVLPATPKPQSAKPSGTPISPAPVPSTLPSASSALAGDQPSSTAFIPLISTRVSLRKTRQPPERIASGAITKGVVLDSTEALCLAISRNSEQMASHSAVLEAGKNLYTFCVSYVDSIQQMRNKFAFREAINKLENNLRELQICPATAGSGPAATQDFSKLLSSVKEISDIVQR
- Cond: at 10 µM

[
  {
    "Smiles Record": "CC(C)n1cnc2c(NCc3ccccc3)nc(NCCCO)nc21",
    "Unit Symbol": "%",
    "residual activity": 81
  },
  {
    "Smiles Record": "N#CC(C#N)=C(N)/C(C#N)=C/c1ccc(O)cc1",
    "Unit Symbol": "%",
    "residual activity": 78
  },
  {
    "Smiles Record": "CC(=O)O/N=C1\\C(=C2\\C(=O)Nc3cc(Br)ccc32)Nc2ccccc21",
    "Unit Symbol": "%",
    "residual activity": 7
  },
  {
    "Smiles Record": "CC(C)n1cnc2/c(=N/c3cccc(Cl)c3)nc(NCCO)[nH]c21",
    "Unit Symbol": "%",
    "residual activity": 25
  },
  {
    "Smiles Record": "Cc1cc2ncc(-c3ccccc3)nc2cc1C",
    "Unit Symbol": "%",
    "residual activity": 87
  },
  {
    "Smiles Record": "Oc1ccc(-c2nc(-c3ccc(F)cc3)c(-c3ccncc3)[nH]2)cc1",
    "Unit Symbol": "%",
    "residual activity": 95
  },
  {
    "Smiles Record": "Oc1c2ccccc2c2c3c(cccc13)N=N2",
    "Unit Symbol": "%",
    "residual activity": 56
  },
  {
    "Smiles Record": "O=[N+]([O-])c1ccc(-c2nc(-c3ccc(F)cc3)c(-c3ccncc3)[nH]2)cc1",
    "Unit Symbol": "%",
    "residual activity": 95
  },
  {
    "Smiles Record": "Cc1nc(-c2ccccc2)c(-c2ccncc2)o1",
    "Unit Symbol": "%",
    "residual activity": 33
  },
  {
    "Smiles Record": "COc1cc2ncnc(Nc3ccc(O)c(Br)c3)c2cc1OC",
    "Unit Symbol": "%",
    "residual activity": 13
  },
  {
    "Smiles Record": "O=Nc1c(-c2c(O)[nH]c3ccccc23)[nH]c2ccccc12",
    "Unit Symbol": "%",
    "residual activity": 16
  }
]

All values here come from ChEMBL document CHEMBL2218924.
